Entry source: patent US20250186600A1

assay: Caffeine solubility with co-solutes during refrigerated storage (Example 61); assay type: physicochemical; parameters: key: (PPT)—precipitate observed; (—)—clear solution observed; conditions: caffeine 12.5 mg/mL, 50 mM co-solute, 25 mM histidine pH 6, stored 2 to 5° C., Day 56
Parameter: Day 56 (visual observation for precipitate)

Please review the following examples before continuing.
In [3]: df
Out[3]:
                                   compound  val
0                                CN1CCCC1=O  PPT
1                  N[C@@H](Cc1ccccc1)C(=O)O    —
2  O=C([O-])c1ccccc1.[Na+] [Sodium benzoate]    —
3             NC(=O)c1cccnc1 [Nicotinamide]    —

The reported value for OCc1ccccc1 in terms of Day 56 (visual observation for precipitate) is —

---

test system: ustekinumab; assay: Thermal stability at 65 deg C., increase in percent monomer by SE-HPLC (Example 55); type: physicochemical; details: excipient 5 mg/mL, ustekinumab 1 mg/mL, 20 mM Histidine pH 6.0, 65 deg C., 120 min
Parameter: % increase in monomer content vs. control (%)

>>> print(df.to_string())
                                   compound  unit_abbrev  val
0  OC[C@H]1O[C@@](CO)(OC[C@@]2(O[C@H]3O[C@H](CO)[C@@H](O)[C@H](O)[C@H]3O)O[C@H](CO)[C@@H](O)[C@@H]2O)[C@@H](O)[C@@H]1O            %  5.9
1  O=C(CO)[C@@H](O)[C@H](O)[C@H](O)[C@H](O)CO            %  4.1
2   O=C1O[C@@H]([C@H](O)CO)[C@@H](O)[C@H]1O            %  2.6
3  O=C(CO)[C@@H](O[C@H]1O[C@H](CO)[C@@H](O)[C@H](O)[C@H]1O)[C@H](O)[C@H](O)CO            %  5.8
4    O=C[C@@H](O)[C@H](O)[C@H](O)[C@H](O)CO            %  2.8
5  CC(=O)N[C@@H]1C(O)O[C@H](CO)[C@@H](O)[C@@H]1O (stereo partly drawn)            %  3.1

---

test: Caffeine solubility with co-solutes during refrigerated storage (Example 61); type: physicochemical; design: key: (PPT)—precipitate observed; (—)—clear solution observed; conditions: caffeine 20 mg/mL, 50 mM co-solute, 25 mM histidine pH 6, stored 2 to 5° C., Day 18
Parameter: Day 18 (visual observation for precipitate)

Illustrative cases are given below, each with its answer.
>>> df
                                   compound  val
0  O=C([O-])c1ccccc1.[Na+] [Sodium benzoate]  PPT
1             NC(=O)c1cccnc1 [Nicotinamide]  PPT
2                                OCc1ccccc1  PPT
3                  N[C@@H](Cc1ccccc1)C(=O)O  PPT

// next item, Day 18 (visual observation for precipitate) requested
Form: compound = CN1CCCC1=O ; Day 18 (visual observation for precipitate) = PPT

---

experiment: Caffeine solubility with co-solutes during refrigerated storage (Example 61); format: physicochemical; set-up: key: (PPT)—precipitate observed; (—)—clear solution observed; conditions: caffeine 12.5 mg/mL, 50 mM co-solute, 25 mM histidine pH 6, stored 2 to 5° C., Day 18
Parameter: Day 18 (visual observation for precipitate)

In the examples that follow, each entry is paired with its recorded Day 18 (visual observation for precipitate).
In [3]: df
Out[3]:
                                   molecule  val
0  O=C([O-])c1ccccc1.[Na+] [Sodium benzoate]    —
1                                OCc1ccccc1    —
2             NC(=O)c1cccnc1 [Nicotinamide]    —
3                  N[C@@H](Cc1ccccc1)C(=O)O    —

What the record says about CN1CCCC1=O : Day 18 (visual observation for precipitate) is —
